These entries and their values trace back to patent US11944613B2.

# TARGET OR TEST SYSTEM: CYP3A4 (Homo sapiens)
# Sequence (P08684 whole entry): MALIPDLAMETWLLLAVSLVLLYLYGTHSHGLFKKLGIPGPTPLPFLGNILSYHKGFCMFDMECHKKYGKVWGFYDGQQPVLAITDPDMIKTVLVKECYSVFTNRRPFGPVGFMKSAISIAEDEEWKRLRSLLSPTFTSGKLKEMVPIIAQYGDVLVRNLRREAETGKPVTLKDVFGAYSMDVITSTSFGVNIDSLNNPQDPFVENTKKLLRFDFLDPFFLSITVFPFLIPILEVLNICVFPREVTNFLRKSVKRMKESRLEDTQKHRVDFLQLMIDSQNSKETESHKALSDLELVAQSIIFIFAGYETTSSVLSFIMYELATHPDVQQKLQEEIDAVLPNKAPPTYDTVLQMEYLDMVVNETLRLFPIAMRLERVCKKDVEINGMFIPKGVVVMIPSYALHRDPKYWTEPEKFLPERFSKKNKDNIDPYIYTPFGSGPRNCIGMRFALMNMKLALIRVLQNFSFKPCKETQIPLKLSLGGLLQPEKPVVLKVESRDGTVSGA
# TEST SUMMARY: in vitro
Quick reference: inhibition at 30 min, 10 μM of the listed items.

COMPOUND: C[C@]12CC[C@@H]3c4ccc(O)cc4CC[C@H]3[C@@H]1CC[C@@H]2O [c054, Estradiol]
TARGET OR TEST SYSTEM: CYP3A4 (Homo sapiens)
inhibition at 30 min, 10 μM: 12.1%
--
COMPOUND: C#C[C@]1(O)CC[C@H]2[C@@H]3CCC4=CC(=O)CC[C@@H]4[C@H]3CC[C@@]21CC [c314, Levonorgestrel]
TARGET OR TEST SYSTEM: CYP3A4 (Homo sapiens)
inhibition at 30 min, 10 μM: 5.1%
--
COMPOUND: CC(C)/N=c1\cc2n(-c3ccc(Cl)cc3)c3ccccc3nc-2cc1Nc1ccc(Cl)cc1 [c516, Clofazimine]
TARGET OR TEST SYSTEM: CYP3A4 (Homo sapiens)
inhibition at 30 min, 10 μM: -82.9%
--
COMPOUND: CC(C)OC(=O)C(C)(C)Oc1ccc(C(=O)c2ccc(Cl)cc2)cc1 [c246, Fenofibrate]
TARGET OR TEST SYSTEM: CYP3A4 (Homo sapiens)
inhibition at 30 min, 10 μM: -26.2%
